B1: SCNN1D (parent)
chain: RRPSPVLRHLELLDEFARENIDSL

Variants of: B1
assay summary: protein stability index of a GFP-peptide fusion (GPS, HEK-293T) (PSI 1-6); higher = more stable;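 further: lentivirally expressed fusions sorted by FACS into six bins by GFP to DsRed ratio, PSI derived from sequencing read proportions per bin multiplied by bin number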
cond: c terminus: a fixed tail appended
endpoint name: protein stability index
Response field accepts a number only; no unit should be typed.

State its protein stability index: L10Q
3.84

Assign protein stability index to the following record: L13G
4.23

Complete the entry with protein stability index for L10G
3.95

Read the entry I21A and write its reported protein stability index.
3.04

Note down protein stability index recorded for E11H
3.18

Output protein stability index of E11W
2.49

Give me measured protein stability index, please, for this variant: V6K
2.63

Please report protein stability index for the following variant: R18T
3.16

Answer with reported protein stability index of R18N
2.42

Answer with the recorded protein stability index of A17K only.
3.98

For V6M , write its protein stability index.
2.31

Quote protein stability index reported for D22Q please.
2.47

Give the measured protein stability index for R8K
3.5

Consider the variant L10D and give its recorded protein stability index.
4.42

// fetch protein stability index given entry R18Q
2.84

Determine from records and report protein stability index for E15V
2.29

Please look at this variant and report its protein stability index: R2C
3.38

Tell me its protein stability index given D14K as the entry.
1.8

Determine from records and report protein stability index for E15K
2.82

Note protein stability index for the variant shown: L10R
4.46

Give recorded protein stability index. P5Y
2.65

Tell me its protein stability index given E15Q as the entry.
2.95

Give me measured protein stability index, please, for this variant: L13C
3.57

Indicate its recorded protein stability index; the variant in question is R8P
4.18

Output measured protein stability index for this item: P3D
2.74

Output protein stability index of R1F
1.99

Please report the measured protein stability index for S4R
2.87

Read the entry L13P and write its reported protein stability index.
4.21

Consider the variant L24C . State its measured protein stability index.
2.73

// Input: D22I . Output its protein stability index only.
2.15

Read the entry L24I and write its reported protein stability index.
2.46

Respond only with protein stability index recorded for L7A
3.04

Look up protein stability index of P5Q and report it.
4.62

Determine its reported protein stability index: L24R
3.17

Answer with the recorded protein stability index for the variant listed here: H9T
3.83

Retrieve protein stability index measured for R1Y and print it.
1.72

Supply protein stability index value. Item: L10S
4.16

Supply protein stability index value. Item: L10C
3.24

// Input: I21F . Output its protein stability index only.
2.74

Could you please provide reported protein stability index for E11K ? Thanks!
2.83

Kindly indicate its recorded protein stability index. Item: I21W
1.87

Identify measured protein stability index associated with L12W
3.1

Query protein stability index for L24H
2.88

Return reported protein stability index. Input variant: R2D
3.41

Quick one: give measured protein stability index for L13N
4.16

Tell me its protein stability index given N20M as the entry.
1.77

Entry source: the supplement of paper PMC10567573
